# System: RAW264.7
# assay overview: Cytotoxicity against mouse RAW264.7 cells at IC50 by MTT assay
# Format: cell-based

{"columns": ["molecule", "test system", "Activity"],
 "data": [
  ["CC1=C2C[C@@H]3[C@@](C)(O)CC[C@]3(O)[C@@](C)(O)C=C2OC1=O", "RAW264.7", "Non-toxic"],
  ["CC1=C2C[C@H]3[C@H](CC[C@]3(C)O)[C@@](C)(O)C[C@H]2OC1=O", "RAW264.7", "Non-toxic"],
  ["CC1=C2C[C@H]3[C@H](CC[C@]3(C)O)[C@@](C)(O)C[C@]2(O)OC1=O [ZEDOAROLIDE B]", "RAW264.7", "Non-toxic"],
  ["CC1=C2C[C@]3(O)[C@H](C)CC[C@H]3[C@@](C)(O)C=C2OC1=O", "RAW264.7", "Non-toxic"]
]}

---

# System: RAW264.7
# assay overview: Antiinflammatory activity in mouse RAW264.7 cells assessed as inhibition of LPS-induced nitric oxide production after 24 hrs by Griess assay
# Assay type: functional, cell-based
# cond: RAW264.7, 24 h

{"columns": ["compound", "readout unit", "IC50"],
 "data": [
  ["C=C1C[C@]2(O)O[C@@]3(CC2=C(C)C)[C@@H](C)CC[C@@H]13", "µM", 9.8],
  ["CC(C)=C1C[C@H]2[C@H](CC[C@]2(C)O)[C@](C)(O)CC1=O [(1S,4S,5S,10R)-ZEDOARONDIOL]", "µM", 16.7],
  ["CC1=C2C[C@H]3[C@@](C)(O)CC[C@@]34O[C@@]2(C[C@@]4(C)O)OC1=O", "µM", 1.5],
  ["CC(C)=C1C[C@H]2[C@@H](CC[C@]2(C)O)[C@](C)(O)CC1=O", "µM", 54.2]
]}

---

# Test system: RAW264.7
# assay overview: Antiinflammatory activity in mouse RAW264.7 cells assessed as inhibition of LPS-induced nitric oxide production after 24 hrs by Griess assay
# Format: functional, cell-based
# cond: RAW264.7, 24 h
pIC50: −log10 of the molar value.
readout label: pIC50

{"columns": ["molecule", "readout label", "reported measurement"],
 "data": [
  ["CC1=C2C[C@@H]3[C@@](C)(O)CC[C@]3(O)[C@](C)(O)C=C2OC1=O [ZEDOALACTONE B]", "pIC50", 5.89],
  ["CC1=C[C@@]2(O)O[C@@]3(CC2=C(C)C)[C@H](C)CC[C@@H]13", "pIC50", 4.28],
  ["COc1ccc2c(c1)c(CC(=O)O)c(C)n2C(=O)c1ccc(Cl)cc1 [INDOMETHACIN]", "pIC50", 4.92],
  ["CC1=CC(=O)[C@@]2(C[C@]3(O)[C@@H](C)CC[C@@H]13)OC2(C)C [OXYCURCUMENOL EPOXIDE]", "pIC50", 4.24],
  ["CC1=C2C[C@H]3[C@H](CC[C@]3(C)O)[C@@](C)(O)C[C@H]2OC1=O [ZEDOALACTONE A]", "pIC50", 5.80],
  ["CC1=C2C[C@@H]3[C@H](CC[C@@]3(C)O)[C@@](C)(O)C[C@@H]2OC1=O", "pIC50", 4.24],
  ["CC1=C2C[C@H]3[C@H](CC[C@]3(C)O)[C@](C)(O)C=C2OC1=O", "pIC50", 5.54],
  ["C[C@]12CCC(=O)C=C1CC[C@@H]1[C@@H]2[C@@H](O)C[C@@]2(C)[C@H]1CC[C@]2(O)C(=O)CO [HYDROCORTISONE]", "pIC50", 4.36],
  ["CC1=C2C[C@]3(O)[C@H](C)CC[C@H]3[C@@](C)(O)C=C2OC1=O", "pIC50", 4.52],
  ["CC1=C2C[C@@H]3[C@@](C)(O)CC[C@]3(O)[C@@](C)(O)C=C2OC1=O [ZEDOALACTONE D]", "pIC50", 5.80],
  ["CC(C)=C1C[C@H]2[C@@H](CC[C@]2(C)O)[C@@](C)(O)CC1=O", "pIC50", 4.99],
  ["Cc1cc(=O)c(C(C)(C)O)cc2c1CC[C@]2(C)O", "pIC50", 5.23],
  ["CC(C)=C1C[C@H]2[C@@H](CC[C@]2(C)O)C(CO)=CC1=O", "pIC50", 4.89],
  ["CC1=C[C@]2(O)O[C@@]3(CC2=C(C)C)[C@@H](C)CC[C@@H]13 [CURCUMENOL]", "pIC50", 5.38],
  ["CC1=C2C[C@H]3[C@H](CC[C@]3(C)O)[C@@](C)(O)C[C@]2(O)OC1=O [ZEDOAROLIDE B]", "pIC50", 5.34],
  ["CC1=C2C[C@@H]3[C@H](CC[C@@]3(C)O)[C@](C)(O)C[C@H]2OC1=O", "pIC50", 5.72],
  ["CC1=CC(=O)C(=C(C)C)C[C@H]2[C@H]1CC[C@]2(C)O [PROCURCUMENOL]", "pIC50", 4.86]
]}

Where do these numbers come from? They come from ChEMBL document CHEMBL2385009.
